# assayed.system: CYP 2C19 (Homo sapiens (Human))
# Sequence (P33261 whole entry): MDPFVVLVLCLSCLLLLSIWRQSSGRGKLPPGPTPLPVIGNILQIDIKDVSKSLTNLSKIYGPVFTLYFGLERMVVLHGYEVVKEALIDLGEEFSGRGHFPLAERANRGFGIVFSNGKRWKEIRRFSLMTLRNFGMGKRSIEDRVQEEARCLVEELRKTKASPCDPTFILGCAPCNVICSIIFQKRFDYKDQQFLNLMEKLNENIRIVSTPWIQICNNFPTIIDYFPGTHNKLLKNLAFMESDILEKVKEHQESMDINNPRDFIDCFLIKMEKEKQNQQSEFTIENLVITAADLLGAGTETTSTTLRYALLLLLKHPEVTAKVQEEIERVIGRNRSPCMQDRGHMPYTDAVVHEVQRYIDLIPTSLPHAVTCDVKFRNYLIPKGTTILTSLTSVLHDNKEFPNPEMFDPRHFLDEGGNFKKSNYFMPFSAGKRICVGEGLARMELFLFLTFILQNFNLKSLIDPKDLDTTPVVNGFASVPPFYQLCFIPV
# Format: in vitro ADME
# condition.parameters: microsomes, 10 min
pIC50: −log10 of the molar value. Starred links: 1 amine or outer side, 2 acyl side, 3 side chain; linkers in the order of their positions; H or OH if unused. Non-standard residues stand in square brackets, D forms with d. Residues, ends and D or L forms follow the SMILES beside them. Azetidine3carboxylic = O=C(C1CN([*:1])C1)[*:2]; dBta = N[C@H](Cc1csc2ccccc12)C(=O)O; dAbu = CC[C@@H](N)C(=O)O
Listing of entries alongside the reported pIC50.

NCCCC[C@@H](NC(=O)[C@H](Cc1ccccc1)NC(=O)[C@@H](Cc1c[nH]c2ccccc12)NC(=O)[C@@H](Cc1csc2ccccc12)NC(=O)C1CNC1)C(N)=O [Compound 53] (Azetidine3carboxylic-[dBta][dW]F[dK]-NH2)
< 4.30

Consider CC[C@@H](N)C(=O)N[C@H](Cc1csc2ccccc12)C(=O)N[C@H](Cc1c[nH]c2ccccc12)C(=O)N[C@@H](Cc1ccccc1)C(=O)N[C@H](CCCCN)C(N)=O [Compound 32] (H-[dAbu][dBta][dW]F[dK]-NH2) . Its measured pIC50 is < 4.30

====

# assayed.system: GHSR-1a (Homo sapiens (Human), UniProt Q92847)
# Sequence (Q92847 whole entry): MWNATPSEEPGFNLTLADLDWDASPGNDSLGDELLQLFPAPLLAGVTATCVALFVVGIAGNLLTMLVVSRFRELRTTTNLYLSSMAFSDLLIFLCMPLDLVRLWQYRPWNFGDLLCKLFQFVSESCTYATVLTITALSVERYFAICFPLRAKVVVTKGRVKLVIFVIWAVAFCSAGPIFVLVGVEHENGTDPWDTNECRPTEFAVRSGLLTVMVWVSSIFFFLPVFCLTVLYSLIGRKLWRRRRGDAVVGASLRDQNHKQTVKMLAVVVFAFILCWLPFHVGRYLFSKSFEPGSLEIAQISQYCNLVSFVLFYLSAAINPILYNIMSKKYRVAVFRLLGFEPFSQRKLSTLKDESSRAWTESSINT
# assay.method.text: Agonistic activity for GHSR-1a, FLIPR calcium assay
# condition.parameters: agonist activity assay, Flp In-CHO-GHSR Stable Pool cells, FLIPR calcium 6 kit; read-out: The activity (IC50) of polypeptide compounds for GHSR-1a
Non-standard residues stand in square brackets, D forms with d. Residues, ends and D or L forms follow the SMILES beside them. *: point of attachment. dBta = N[C@H](Cc1csc2ccccc12)C(=O)O; X3 = NCC1(C(=O)*)CCC1
assay.endpoint: IC50 (nM)

[A] CC(=O)N[C@H](CCCCN)C(=O)N[C@H](Cc1csc2ccccc12)C(=O)N[C@H](Cc1c[nH]c2ccccc12)C(=O)N[C@@H](Cc1ccccc1)C(=O)N[C@H](CCCCN)C(N)=O [Compound 37] (Ac-[dK][dBta][dW]F[dK]-NH2)
[B] N=C(N)NCCC[C@@H](NC(=O)[C@H](Cc1ccccc1)NC(=O)[C@@H](Cc1c[nH]c2ccccc12)NC(=O)[C@@H](Cc1csc2ccccc12)NC(=O)C1(CN)CCC1)C(N)=O [Compound 62] (X3-[dBta][dW]F[dR]-NH2)
Of the two listed items, A and B , which carries the larger IC50 figure? API: response body contains the label of the selected item.
A
(A: 291 nM, B: 30.3 nM)

====

# assayed.system: GHSR-1a (Homo sapiens (Human), UniProt Q92847)
# assay.method.text: Agonistic activity for GHSR-1a, FLIPR calcium assay
# condition.parameters: agonist activity assay, Flp In-CHO-GHSR Stable Pool cells, FLIPR calcium 6 kit; read-out: The activity (IC50) of polypeptide compounds for GHSR-1a
Non-standard residues stand in square brackets, D forms with d. Residues, ends and D or L forms follow the SMILES beside them. *: point of attachment. dBta = N[C@H](Cc1csc2ccccc12)C(=O)O; dCit = NC(=O)NCCC[C@@H](N)C(=O)O; X1 = N[C@H]1CCC[C@H]1C(=O)*; Nle = CCCC[C@H](N)C(=O)O; Api = NC1(C(=O)O)CCNCC1; X3 = NCC1(C(=O)*)CCC1
assay.endpoint: IC50 (nM)

NCCCC[C@@H](NC(=O)[C@H](Cc1ccccc1)NC(=O)[C@@H](Cc1c[nH]c2ccccc12)NC(=O)[C@@H](Cc1csc2ccccc12)NC(=O)C1(CN)CCC1)C(N)=O [Compound 52] (X3-[dBta][dW]F[dK]-NH2)
3.8

[1] CCCC[C@H](N)C(=O)N[C@H](Cc1csc2ccccc12)C(=O)N[C@H](Cc1c[nH]c2ccccc12)C(=O)N[C@@H](Cc1ccccc1)C(=O)NC1(C(N)=O)CCNCC1 [Compound 20] (H-[Nle][dBta][dW]F[Api]-NH2)
[2] CC(=O)N[C@H](CCCNC(N)=O)C(=O)N[C@H](Cc1csc2ccccc12)C(=O)N[C@H](Cc1c[nH]c2ccccc12)C(=O)N[C@@H](Cc1ccccc1)C(=O)N[C@H](CCCCN)C(N)=O [Compound 36] (Ac-[dCit][dBta][dW]F[dK]-NH2)
[3] NCCCC[C@@H](NC(=O)[C@H](Cc1ccccc1)NC(=O)[C@@H](Cc1c[nH]c2ccccc12)NC(=O)[C@@H](Cc1csc2ccccc12)NC(=O)CN)C(N)=O [Compound 41] (H-G[dBta][dW]F[dK]-NH2)
[4] N=C(N)NCCC[C@@H](NC(=O)[C@H](Cc1ccccc1)NC(=O)[C@@H](Cc1c[nH]c2ccccc12)NC(=O)[C@@H](Cc1csc2ccccc12)NC(=O)[C@@H]1CCC[C@@H]1N)C(N)=O [Compound 61] (X1-[dBta][dW]F[dR]-NH2)
# rank_down: sort by IC50, max first # answer = labels listed in requested order
2, 1, 3, 4
(2: 122 nM, 1: 57.4 nM, 3: 31.4 nM, 4: 20.5 nM)

====

# assayed.system: GHSR-1a (Homo sapiens (Human))
# assay.method.text: Agonistic activity for GHSR-1a, FLIPR calcium assay
# condition.parameters: agonist activity assay, Flp In-CHO-GHSR Stable Pool cells, FLIPR calcium 6 kit; read-out: The activity (IC50) of polypeptide compounds for GHSR-1a
pIC50: −log10 of the molar value. Starred links: 1 amine or outer side, 2 acyl side, 3 side chain; linkers in the order of their positions; H or OH if unused. Non-standard residues stand in square brackets, D forms with d. Residues, ends and D or L forms follow the SMILES beside them. Azetidine3carboxylic = O=C(C1CN([*:1])C1)[*:2]; dBta = N[C@H](Cc1csc2ccccc12)C(=O)O; Api = NC1(C(=O)O)CCNCC1
assay.endpoint: pIC50

NC(=O)C1(NC(=O)[C@H](Cc2ccccc2)NC(=O)[C@@H](Cc2c[nH]c3ccccc23)NC(=O)[C@@H](Cc2csc3ccccc23)NC(=O)C2CNC2)CCNCC1 [Compound 23] (Azetidine3carboxylic-[dBta][dW]F[Api]-NH2)
8.48

[I] NC(=O)[C@H](Cc1ccccc1)NC(=O)[C@@H](Cc1c[nH]c2ccccc12)NC(=O)[C@@H](Cc1csc2ccccc12)NC(=O)[C@H]1CNCCO1 [Compound 77]
[II] N=C(N)NCCC[C@@H](NC(=O)[C@H](Cc1ccccc1)NC(=O)[C@@H](Cc1c[nH]c2ccccc12)NC(=O)[C@@H](Cc1csc2ccccc12)NC(=O)C1CNC1)C(N)=O [Compound 63] (Azetidine3carboxylic-[dBta][dW]F[dR]-NH2)
Just curious, which one has the larger pIC50 reading, I or II ? // respond with label for picked entry
I

====

# assayed.system: GHSR-1a (Homo sapiens (Human), UniProt Q92847)
# assay.method.text: Agonistic activity for GHSR-1a, FLIPR calcium assay
# condition.parameters: agonist activity assay, Flp In-CHO-GHSR Stable Pool cells, FLIPR calcium 6 kit; read-out: The activity (IC50) of polypeptide compounds for GHSR-1a
pIC50: −log10 of the molar value. Starred links: 1 amine or outer side, 2 acyl side, 3 side chain; linkers in the order of their positions; H or OH if unused. Non-standard residues stand in square brackets, D forms with d. Residues, ends and D or L forms follow the SMILES beside them. *: point of attachment. Pyrrolidine3carbonyl(3S) = O=C([C@H]1CCNC1)*; X6 = O=C(C1[C@H]2CC[C@H](C2)N1[*:1])[*:2]; X5 = NC12CC3CC(C1)CC(CC(=O)*)(C3)C2; dBta = N[C@H](Cc1csc2ccccc12)C(=O)O; X7 = O=C([C@@]12CNC[C@@H]1C2)*; dTle = CC(C)(C)[C@@H](N)C(=O)O; Ac4c(3-oxa) = NC1(C(=O)O)COC1; X1 = N[C@H]1CCC[C@H]1C(=O)*; dNle = CCCC[C@@H](N)C(=O)O; dAbu = CC[C@@H](N)C(=O)O; Api = NC1(C(=O)O)CCNCC1
assay.endpoint: pIC50

Field: example entries. Status: answers known.
CC(C)[C@@H](N)C(=O)N[C@H](Cc1csc2ccccc12)C(=O)N[C@H](Cc1c[nH]c2ccccc12)C(=O)N[C@@H](Cc1ccccc1)C(=O)NC1(C(N)=O)CCNCC1 [Compound 13] (H-[dV][dBta][dW]F[Api]-NH2)
7.36
CC(C)(C)[C@@H](N)C(=O)N[C@H](Cc1csc2ccccc12)C(=O)N[C@H](Cc1c[nH]c2ccccc12)C(=O)N[C@@H](Cc1ccccc1)C(=O)N[C@H](CCCCN)C(N)=O [Compound 47] (H-[dTle][dBta][dW]F[dK]-NH2)
7.97
CCCC[C@@H](NC(=O)C1(NC(=O)[C@H](Cc2ccccc2)NC(=O)[C@@H](Cc2c[nH]c3ccccc23)NC(=O)[C@@H](Cc2csc3ccccc23)NC(=O)[C@H](N)CC)CCNCC1)C(N)=O [Compound 83] (H-[dAbu][dBta][dW]F[Api][dNle]-NH2)
7.91
N=C(N)NCCC[C@@H](NC(=O)[C@H](Cc1ccccc1)NC(=O)[C@@H](Cc1c[nH]c2ccccc12)NC(=O)[C@@H](Cc1csc2ccccc12)NC(=O)C1(N)COC1)C(N)=O [Compound 64] (H-[Ac4c(3-oxa)][dBta][dW]F[dR]-NH2)
7.42
CC[C@@H](N)C(=O)N[C@H](Cc1csc2ccccc12)C(=O)N[C@H](Cc1c[nH]c2ccccc12)C(=O)N[C@@H](Cc1ccccc1)C(=O)NC1(C(N)=O)CCNCC1 [Compound 2] (H-[dAbu][dBta][dW]F[Api]-NH2)
8.46

[P] NC(=O)C1(NC(=O)[C@H](Cc2ccccc2)NC(=O)[C@@H](Cc2c[nH]c3ccccc23)NC(=O)[C@@H](Cc2csc3ccccc23)NC(=O)[C@H]2CCNC2)CCNCC1 [Compound 26] ({Pyrrolidine3carbonyl(3S)}-[dBta][dW]F[Api]-NH2)
[Q] CC(C)(C)[C@@H](N)C(=O)N[C@H](Cc1csc2ccccc12)C(=O)N[C@H](Cc1c[nH]c2ccccc12)C(=O)N[C@@H](Cc1ccccc1)C(=O)NC1(C(N)=O)CCNCC1 [Compound 17] (H-[dTle][dBta][dW]F[Api]-NH2)
Returns: the label, P or Q , whose recorded pIC50 is the lower number. I would appreciate it if you answered with the label of your choice.
Q

[a] NCCCC[C@@H](NC(=O)[C@H](Cc1ccccc1)NC(=O)[C@@H](Cc1c[nH]c2ccccc12)NC(=O)[C@@H](Cc1csc2ccccc12)NC(=O)[C@H]1CCNC1)C(N)=O [Compound 56] ({Pyrrolidine3carbonyl(3S)}-[dBta][dW]F[dK]-NH2)
[b] NCCCC[C@@H](NC(=O)[C@H](Cc1ccccc1)NC(=O)[C@@H](Cc1c[nH]c2ccccc12)NC(=O)[C@@H](Cc1csc2ccccc12)NC(=O)C1N[C@@H]2CC[C@H]1C2)C(N)=O (stereo partly shown) [Compound 59] (H-[X6][dBta][dW]F[dK]-NH2)
[c] N=C(N)NCCC[C@@H](NC(=O)[C@H](Cc1ccccc1)NC(=O)[C@@H](Cc1c[nH]c2ccccc12)NC(=O)[C@@H](Cc1csc2ccccc12)NC(=O)[C@@]12CNC[C@@H]1C2)C(N)=O [Compound 70] (X7-[dBta][dW]F[dR]-NH2)
[d] NCCCC[C@@H](NC(=O)[C@H](Cc1ccccc1)NC(=O)[C@@H](Cc1c[nH]c2ccccc12)NC(=O)[C@@H](Cc1csc2ccccc12)NC(=O)[C@@H]1CCC[C@@H]1N)C(N)=O [Compound 51] (X1-[dBta][dW]F[dK]-NH2)
[e] NCCCC[C@@H](NC(=O)[C@H](Cc1ccccc1)NC(=O)[C@@H](Cc1c[nH]c2ccccc12)NC(=O)[C@@H](Cc1csc2ccccc12)NC(=O)CC12CC3CC(CC(N)(C3)C1)C2)C(N)=O [Compound 58] (X5-[dBta][dW]F[dK]-NH2)
# sort list by recorded pIC50, greatest to least Your reply should list the labels following the order given in the request.
d, a, b, c, e
(d: 8.49, a: 8.26, b: 7.77, c: 7.40, e: 6.98)

[A] CCCC[C@@H](NC(=O)[C@@H](CCCCN)NC(=O)[C@H](Cc1ccccc1)NC(=O)[C@@H](Cc1c[nH]c2ccccc12)NC(=O)[C@@H](Cc1csc2ccccc12)NC(=O)[C@H](N)CC)C(N)=O [Compound 81] (H-[dAbu][dBta][dW]F[dK][dNle]-NH2)
[B] CC(C)C[C@@H](N)C(=O)N[C@H](Cc1csc2ccccc12)C(=O)N[C@H](Cc1c[nH]c2ccccc12)C(=O)N[C@@H](Cc1ccccc1)C(=O)N[C@H](CCCCN)C(N)=O [Compound 44] (H-[dL][dBta][dW]F[dK]-NH2)
// pick min by pIC50: A , B // return label of chosen record
B
(B: 7.87, A: 8.14)
